compounds and their reported EC50
Target: Adrenergic β2 (H292 cells) (Homo sapiens)
Construct: endogenous in cells; host or cells: H292 cells
Assay: Assay for Adrenergic β2 Mediated cAMP Production (concentration response, AlphaScreen cAMP detection)
Format: cell-based
Settings: cAMP production, 60 minutes at room temperature, 300 μM rolipram, read-out: β2 pEC50 (converted)
Structures can show the parent of a compound that is named as a salt.

compound="Cc1nc(C(=O)N2CCOC3(CCN(Cc4cc(F)cc(CCNC[C@H](O)c5ccc(O)c6[nH]c(=O)ccc56)c4)CC3)C2)cs1 [Example 28, ditrifluoroacetate]" reported="10 nM"
compound="Cc1ccc(C(=O)N2CCOC3(CCN(Cc4cc(CCNC[C@H](O)c5ccc(O)c6[nH]c(=O)sc56)ccc4F)CC3)C2)s1 [Example 29, ditrifluoroacetate]" reported="1.58 nM"
compound="Cc1nc(C(=O)N2CCOC3(CCN(CCc4ccc(CCNC[C@H](O)c5ccc(O)c6[nH]c(=O)sc56)s4)CC3)C2)cs1 [Example 4, ditrifluoroacetate]" reported="15.8 nM"
compound="COC(=O)c1ccc(C(=O)N2CCOC3(CCN(Cc4cccc(CCNC[C@H](O)c5ccc(O)c6[nH]c(=O)ccc56)c4)CC3)C2)s1 [Example 31, ditrifluoroacetate]" reported="5.01 nM"
compound="CC(C)c1nc(C(=O)N2CCOC3(CCN(CCCCCCSCCNC[C@H](O)c4ccc(O)c5[nH]c(=O)sc45)CC3)C2)cs1 [Example 101, formate]" reported="158 nM"

Continue with the compound presented below.
EC50 lookup needed for O=C(c1csc(C2CC2)n1)N1CCOC2(CCN(CCOc3ccc(CNC[C@H](O)c4ccc(O)c5[nH]c(=O)sc45)cc3)CC2)C1 [Example 259] , thanks.
200 nM

---

Target: Adrenergic β2 (H292 cells) (Homo sapiens, UniProt P07550)
Construct: endogenous in cells; host or cells: H292 cells
Sequence (P07550 whole entry): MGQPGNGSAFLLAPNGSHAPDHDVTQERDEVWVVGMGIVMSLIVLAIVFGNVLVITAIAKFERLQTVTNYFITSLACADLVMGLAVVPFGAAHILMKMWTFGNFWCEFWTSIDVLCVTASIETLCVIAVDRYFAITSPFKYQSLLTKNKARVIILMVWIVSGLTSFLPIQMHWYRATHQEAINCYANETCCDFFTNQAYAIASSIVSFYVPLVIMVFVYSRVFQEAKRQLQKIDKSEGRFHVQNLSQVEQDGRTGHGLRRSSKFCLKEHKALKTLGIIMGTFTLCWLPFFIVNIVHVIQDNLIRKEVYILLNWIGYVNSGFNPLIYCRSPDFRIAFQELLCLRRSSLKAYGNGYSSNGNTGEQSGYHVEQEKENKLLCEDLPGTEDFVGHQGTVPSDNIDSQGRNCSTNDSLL
Test: Assay for Adrenergic β2 Mediated cAMP Production (concentration response, AlphaScreen cAMP detection)
Assay type: cell-based
Conditions: cAMP production, 60 minutes at room temperature, 300 μM rolipram, read-out: β2 pEC50 (converted)
Value Type: EC50 (nM)
The figure you give is taken to be in nM; do not add the unit.

Examples with answers:
molecule="CC(C)c1cc(C(=O)N2CCOC3(CCN(Cc4cc(CCNC[C@H](O)c5ccc(O)c6[nH]c(=O)sc56)cs4)CC3)C2)cs1 [Example 264, ditrifluoroacetate]" assayed_system="Adrenergic β2 (H292 cells) (Homo sapiens, UniProt P07550)" reported=20
molecule="O=C(c1ccc2sccc2c1)N1CCOC2(CCN(Cc3cccc(CCNC[C@H](O)c4ccc(O)c5[nH]c(=O)sc45)c3F)CC2)C1 [Example 68, ditrifluoroacetate]" assayed_system="Adrenergic β2 (H292 cells) (Homo sapiens, UniProt P07550)" reported=6.31
molecule="CC(C)c1nc(C(=O)N2CCOC3(CCN(Cc4cccc(CCNC[C@H](O)c5ccc(O)c6[nH]c(=O)sc56)c4F)CC3)C2)cs1 [Example 48, ditrifluoroacetate]" assayed_system="Adrenergic β2 (H292 cells) (Homo sapiens, UniProt P07550)" reported=5.01
molecule="CCc1cc(C(=O)N2CC(C)(C)OC3(CCN(Cc4cccc(CCNC[C@H](O)c5ccc(O)c6[nH]c(=O)ccc56)c4)CC3)C2)cs1 [Example 272, ditrifluoroacetate]" assayed_system="Adrenergic β2 (H292 cells) (Homo sapiens, UniProt P07550)" reported=10

EC50 lookup needed for CC(C)Cc1nc(C(=O)N2CCOC3(CCN(Cc4cccc(CCNC[C@H](O)c5ccc(O)c6[nH]c(=O)sc56)c4F)CC3)C2)cs1 [Example 72, ditrifluoroacetate] , thanks.
7.94

Data provenance is patent US8148373B2.
